- assayed-system: Ectonucleoside triphosphate diphosphohydrolase 2 (Rattus norvegicus)
- Sequence (O35795 whole entry): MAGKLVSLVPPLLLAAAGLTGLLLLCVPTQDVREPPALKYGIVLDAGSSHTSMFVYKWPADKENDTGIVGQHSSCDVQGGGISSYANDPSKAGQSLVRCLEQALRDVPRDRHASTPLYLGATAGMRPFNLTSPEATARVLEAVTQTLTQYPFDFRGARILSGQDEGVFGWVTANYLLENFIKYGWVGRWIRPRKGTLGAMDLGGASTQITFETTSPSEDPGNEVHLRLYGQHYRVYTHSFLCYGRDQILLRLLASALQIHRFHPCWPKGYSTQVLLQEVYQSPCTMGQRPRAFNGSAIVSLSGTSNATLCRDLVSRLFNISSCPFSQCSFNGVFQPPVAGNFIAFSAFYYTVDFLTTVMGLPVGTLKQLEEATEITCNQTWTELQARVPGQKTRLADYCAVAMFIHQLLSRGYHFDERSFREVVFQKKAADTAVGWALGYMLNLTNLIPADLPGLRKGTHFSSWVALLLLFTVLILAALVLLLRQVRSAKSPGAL
- protocol: Inhibition of rat NTPDase2 expressed in CHO cells using ATP as substrate incubated for 10 mins by UV absorbance method
- Assay type: cell-based
recorded-metric: pKi
When answering, recall that pKi equals minus log10 of the concentration in mol/L, and write that number alone.

Req: Give its pKi value. Item: Nc1c(S(=O)(=O)O)cc(Nc2ccc(Nc3nc(Cl)nc(Nc4ccc(S(=O)(=O)O)c(S(=O)(=O)O)c4)n3)c(S(=O)(=O)O)c2)c2c1C(=O)c1ccccc1C2=O
Resp: 4.62

====

- assayed-system: Ectonucleoside triphosphate diphosphohydrolase 1 (Rattus norvegicus)
- Sequence (P97687 whole entry): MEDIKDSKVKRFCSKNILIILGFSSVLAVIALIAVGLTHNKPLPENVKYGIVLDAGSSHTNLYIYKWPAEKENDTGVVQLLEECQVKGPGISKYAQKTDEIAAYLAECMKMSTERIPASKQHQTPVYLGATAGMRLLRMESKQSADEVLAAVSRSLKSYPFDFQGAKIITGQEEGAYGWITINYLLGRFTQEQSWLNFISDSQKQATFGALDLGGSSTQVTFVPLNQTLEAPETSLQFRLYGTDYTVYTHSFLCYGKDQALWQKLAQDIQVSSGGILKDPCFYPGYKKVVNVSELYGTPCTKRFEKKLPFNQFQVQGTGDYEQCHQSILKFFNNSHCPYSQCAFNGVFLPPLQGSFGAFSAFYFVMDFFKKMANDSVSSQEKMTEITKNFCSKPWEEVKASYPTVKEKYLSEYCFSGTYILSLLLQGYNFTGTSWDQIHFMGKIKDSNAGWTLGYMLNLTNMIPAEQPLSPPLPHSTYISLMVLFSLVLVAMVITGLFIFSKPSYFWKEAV
- protocol: Inhibition of rat CD39 expressed in CHO cells using ATP as substrate incubated for 10 mins by UV absorbance method
- Format: cell-based
recorded-metric: Ki

Req: Give its Ki value. Item: Nc1c(S(=O)(=O)O)cc(Nc2ccc(Nc3nc(Cl)nc(Nc4ccc(S(=O)(=O)O)c(S(=O)(=O)O)c4)n3)c(S(=O)(=O)O)c2)c2c1C(=O)c1ccccc1C2=O
Resp: 20 µM

Entry source: ChEMBL document CHEMBL4680277
